Overview of reported Percent Effect across a group of molecules:
study.system: Sialic acid-binding Ig-like lectin 9 (Homo sapiens)
protocol.summary: Hs-Siglec9 ALPHAscreen SOP 20170721
Parameters: scale not given: direction of the effect not stated beside the values
measurement.parameters: 10 µM
endpoint: Percent Effect (%)

molecule: O=C(Nc1ccccn1)C1CC(=O)N(Cc2ccccn2)C1 (stereo unspecified)
experimental.result: 8.62
--
molecule: Cc1ccc(CN(C)C(=O)CN2CC(n3cccn3)C2)o1
experimental.result: -1.07
--
molecule: COC(=O)c1ccc(N2CCN(C(=O)c3ccncc3)C(C)C2)cc1 (stereo unspecified)
experimental.result: 4.75
--
molecule: CC(=O)N1CCN(Cn2nc(-c3ccc(F)cc3)oc2=O)CC1
experimental.result: -7.73
--
molecule: CS(=O)(=O)NC[C@@H]1OC[C@H]2CN(C(=O)c3ccc[nH]3)CC[C@H]21
experimental.result: 3.67
--
molecule: COCC1Cn2nnc(-c3cnn(C)c3)c2CN1Cc1ccco1 (stereo unspecified)
experimental.result: 5.87
--
molecule: O=C(c1ccsc1)N1CC[C@H]2C[C@@H](c3nnc(C4CC4)o3)O[C@@H]2C1
experimental.result: -4.04
--
molecule: Cc1nn(CCO)c(C)c1CNC1CCC(C)(C)c2ccccc21 (stereo unspecified)
experimental.result: 14.7
--
molecule: CS(=O)(=O)N1CCOCC2(CCN(C(=O)c3cccnc3)CC2)C1
experimental.result: -0.0941
--
molecule: CC(C)C1CN(c2ncc(F)cn2)CCC(=O)N1Cc1ccc(F)cc1 (stereo unspecified)
experimental.result: 14.3
--
molecule: CCN1CCC(CNC(=O)NCc2cc(-c3ccc(C)cc3)no2)C1 (stereo unspecified)
experimental.result: 3.46
--
molecule: Cc1cc(C[C@@H]2CCC[C@H]2NCc2cc(C)c(O)c(C)c2)on1
experimental.result: -0.421
--
molecule: Cc1nccn1C1CCCN(C(=O)c2ccc(N(C)C)nc2)C1 (stereo unspecified)
experimental.result: 3.06
--
molecule: CN1CCN(C(=O)c2cnc3c(cnn3C3CCCC3)c2)CC1
experimental.result: -0.596
--
molecule: Cc1cccc(-c2nc(C)nn2CC(=O)NC2CCCC2)c1
experimental.result: 8.2
--
molecule: CN(Cc1csc(-c2cccs2)n1)C(=O)CCn1ccccc1=O
experimental.result: 4.47
--
molecule: O=C(NCC(O)c1ccccc1Cl)c1cccc(-n2cnnn2)c1 (stereo unspecified)
experimental.result: 14.3
--
molecule: Cn1cc(-c2cnc(N3CCOCC3)nc2)cc1C(=O)O
experimental.result: 1.49
--
molecule: OCC1CCCN1c1cc(N2CCc3ccccc3C2)ncn1 (stereo unspecified)
experimental.result: -9.93
--
molecule: Nc1nc(C2CCN(C(=O)c3cscn3)CC2)cs1
experimental.result: -2.11
--
molecule: O=C1N(Cc2cccc(F)c2F)CCCC1(O)CNC1CCCC1 (stereo unspecified)
experimental.result: 22.4
--
molecule: CCc1nc(CCNC(=O)Nc2ccc(C(=O)NC)cc2C)cs1
experimental.result: 3.65
--
molecule: CC(C)c1nccn1CCCNC(=O)c1ccc(-c2cncnc2)nc1
experimental.result: 8.21
--
molecule: N#Cc1ccnc(N2CCN(C(=O)NC3CCS(=O)(=O)C3)CC2)c1 (stereo unspecified)
experimental.result: 7.69
--
molecule: O=C(CC1CC1)N1CC[C@H]2[C@@H]1CCC(=O)N2c1cccnc1
experimental.result: -6.56
--
molecule: COCCn1ccc(NC(=O)Nc2cccnc2)n1
experimental.result: 3.76
